assaySummary: Human liver microsome (HLM) metabolic stability assay
Assay type: in vitro ADME
reportedConditions: human liver microsomes, 1 uM compound, 37° C., 60 min; % hepatic blood flow
Please respond with reported HLM (% Qh) for every item in the list.

[ask] Given the entry CC[C@@H](C)n1c(=O)c(NCc2ccc(S(=O)(=O)CC)cn2)nc2c(CO)nc(-c3c(OC)ncnc3C3CC3)nc21 , report its measured HLM (% Qh).
[reply] <24 % Qh

[ask] Given the entry Cc1ncnc(C2CC2)c1-c1nc(C)c2nc(NCc3ccc(S(C)(=N)=O)cn3)c(=O)n([C@@H](C)C(F)(F)F)c2n1 (single isomer, unassigned) [Example 106a] , report its measured HLM (% Qh).
[reply] <24 % Qh

[ask] Given the entry CC[C@@H](C)n1c(=O)c(NCc2ccc(S(C)(=O)=O)nc2)nc2c(C)nc(-c3c(C)ncnc3C3CC3)nc21 , report its measured HLM (% Qh).
[reply] <24 % Qh

[ask] Given the entry CC[C@@H](C)n1c(=O)c(NCc2ncc(S(=O)(=O)CC)cn2)nc2c(C)nc(-c3c(OC)ncnc3C3CC3)nc21 , report its measured HLM (% Qh).
[reply] <24 % Qh

[ask] Given the entry CCS(=N)(=O)c1ccc(CNc2nc3c(C)nc(-c4c(C)ncnc4C4CC4)nc3n([C@@H](C)C(F)(F)F)c2=O)cc1 (single isomer, unassigned) [Example 34a] , report its measured HLM (% Qh).
[reply] 25 % Qh

[ask] Given the entry CCS(=N)(=O)c1ccc(CNc2nc3c(C)nc(-c4c(OC)ncnc4C4CC4)nc3n([C@@H](C)C(F)(F)F)c2=O)nc1 (single isomer, unassigned) [Example 101a] , report its measured HLM (% Qh).
[reply] <24 % Qh

[ask] Given the entry COc1ncnc(C2CC2)c1-c1nc(C)c2nc(NCc3ccc(S(C)(=O)=O)cn3)c(=O)n([C@@H](C)C3CC3)c2n1 , report its measured HLM (% Qh).
[reply] 28 % Qh

[ask] Given the entry CC[C@@H](C)n1c(=O)c(NCc2ccc(S(=N)(=O)CC)cc2)nc2c(C)nc(-c3c(C)ncnc3C3CC3)nc21 (single isomer, unassigned) [Example 26a] , report its measured HLM (% Qh).
[reply] 25 % Qh

[ask] Given the entry Cc1ncnc(C2CC2)c1-c1nc(C)c2nc(NCc3ccc(S(C)(=O)=O)cn3)c(=O)n([C@@H](C)CF)c2n1 , report its measured HLM (% Qh).
[reply] <24 % Qh

[ask] Given the entry CCS(=O)(=O)c1ccc(CNc2nc3c(C)nc(-c4c(OC)ncnc4C4CC4)nc3n(CC(C)C)c2=O)nc1 , report its measured HLM (% Qh).
[reply] <24 % Qh

[ask] Given the entry CC[C@@H](C)n1c(=O)c(NCc2ccc(S(C)(=O)=O)cn2)nc2c(C)nc(-c3c(OC)ncnc3C3CC3)nc21 , report its measured HLM (% Qh).
[reply] <24 % Qh

[ask] Given the entry Cc1ncnc(C2CC2)c1-c1nc(C)c2nc(NCc3ccc(S(C)(=O)=O)cn3)c(=O)n([C@@H](C#N)C(C)C)c2n1 , report its measured HLM (% Qh).
[reply] 55 % Qh

[ask] Given the entry Cc1ncnc(C2CC2)c1-c1nc(C)c2nc(NCc3ccc(S(C)(=O)=O)cn3)c(=O)n(C(C)C(F)F)c2n1 (stereo not shown) , report its measured HLM (% Qh).
[reply] <24 % Qh
